Each recorded value in this set is attributed to PubChem BioAssay (NCATS).

Experiment: qHTS Assay for Lipid Storage Modulators (AID 1519); further: on the % scale 0 is the no-effect control and ±100 the full control effect
Conditions: Drosophila S3 cells, BODIPY lipid droplet/cell ratio, laser cytometry; at 57.5 µM (top of the series); cells loaded with oleic acid
Inconclusive results are not listed.
Metric: activity change, negative = inhibition (%)
Give your result in % as a bare value.

# example entries with known answers
compound_structure_string=CN(C)Cc1ccccc1-c1cc(NC2CC2)ncn1 measured_result=8.29
compound_structure_string=Cn1cccc1C(=O)N1CCC2(CCCN(c3ccccc3)C2)CC1 measured_result=1.89
compound_structure_string=O=S(=O)(c1ccccc1)N1CCC2(CCN(C(c3ccccc3)c3ccccc3)CC2)CC1 measured_result=6.93
compound_structure_string=N#Cc1ccc(CN2CCCC3(CCN(C(=O)c4cccc(F)c4)CC3)C2)cc1 measured_result=2.12
compound_structure_string=COCCn1c(=O)cnc2cnc(OC)nc21 measured_result=6.21
compound_structure_string=CC(=O)NCCNc1nc(-c2ccccc2Cl)nc2ccccc12 measured_result=8.12
compound_structure_string=Cn1cc(-c2nc3cncnc3n(Cc3ccc(F)cc3)c2=O)c2ccccc21 measured_result=6.13
compound_structure_string=Cc1cnc(CNc2ccnc(-c3ccccc3Cl)n2)cn1 measured_result=7.03
compound_structure_string=COC(=O)N1CCC[C@@]2(CCN(c3ccccn3)C2)C1 measured_result=5.17
compound_structure_string=c1ccc2c(NC3CCNCC3)nc(-c3ccoc3)nc2c1 measured_result=0.038

# ---- query compound ----
Need activity change, negative = inhibition of O=c1cnc2cnc(Oc3cccc(Cl)c3)nc2n1Cc1ccc(F)cc1 , thanks. 3.63

====

Overview of reported Z-AUC across a group of compounds:
Test: qHTS drug screen for cell cycle checkpoint inhibitors in PARPi-resistant BRCA-mutant ovarian cancer cell lines. (AID 1963452)
Settings: PEO1/OlaR viability, CellTiter-Glo luminescence, 96 h; measured here: PEO4 Z-AUC; stronger effect = lower value
Keep it simple and answer with nothing but the number.

# example entries with known answers
compound=O=C(/C=C/c1cccnc1)NCCCCC1CCN(C(=O)c2ccccc2)CC1 metric=Z-AUC measured_result=-2.61
compound="O=C1OC(COc2ccccc2[N+](=O)[O-])CC1Cc1ccccc1 (configuration not stated)" metric=Z-AUC measured_result=-0.342
compound=C[C@H]1CNC(=O)c2cnn3ccc(nc23)N[C@H](C)c2cc(F)ccc2O1 metric=Z-AUC measured_result=-2.06
compound=CC#CC(=O)N1CC[C@@H](n2c(=O)n(-c3ccc(Oc4ccccc4)cc3)c3c(N)ncnc32)C1 metric=Z-AUC measured_result=1.1
compound=CN1C[C@@H]2c3ccccc3Oc3ccc(Cl)cc3[C@H]2C1 metric=Z-AUC measured_result=1.41

Need Z-AUC of CCCc1cc(C(=O)N[C@H](Cc2ccc(-c3cccc(OC(F)(F)F)c3)nc2)C(=O)N[C@@H]2CCNC2)sc1C , thanks. -0.851

====

Target: Cytochrome P450 1A2 (Homo sapiens) (UniProt P05177)
Sequence (P05177 whole entry, looked up): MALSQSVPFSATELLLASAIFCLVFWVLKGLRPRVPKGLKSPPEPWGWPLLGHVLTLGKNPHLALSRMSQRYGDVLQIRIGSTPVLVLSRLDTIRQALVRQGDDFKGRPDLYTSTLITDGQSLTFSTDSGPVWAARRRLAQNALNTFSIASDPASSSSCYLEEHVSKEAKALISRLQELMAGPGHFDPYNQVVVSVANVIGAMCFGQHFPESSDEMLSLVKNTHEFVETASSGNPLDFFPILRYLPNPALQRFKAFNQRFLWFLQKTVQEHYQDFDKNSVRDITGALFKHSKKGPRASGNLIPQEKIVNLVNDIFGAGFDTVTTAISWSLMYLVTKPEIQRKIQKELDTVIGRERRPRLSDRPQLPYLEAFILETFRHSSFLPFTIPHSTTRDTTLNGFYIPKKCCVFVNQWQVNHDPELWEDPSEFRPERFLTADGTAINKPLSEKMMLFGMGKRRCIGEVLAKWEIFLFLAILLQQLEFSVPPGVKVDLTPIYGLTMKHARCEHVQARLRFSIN
Assay: p450-cyp1a2 (AID 410); further: potency means the concentration at half of the fitted maximal effect
Settings: recombinant CYP1A2, luciferin-ME demethylation, luminescence; series mostly up to 57 µM
Records with an inconclusive call do not appear. Activity calls are given as the source filed them. Calls come from the whole dose curve.
Metric: Potency

# example entries with known answers
compound_structure_string=CC(C)NC(=O)N1CC2(CCN(S(=O)(=O)c3ccccc3)CC2)C1 measured_result=inactive
compound_structure_string=CN1CCC2(CC1)CCN(C(=O)c1cc(C(F)(F)F)cc(C(F)(F)F)c1)CC2 measured_result=inactive
compound_structure_string=COc1ccc(NC(=O)N2CC3(CCN(S(C)(=O)=O)CC3)C2)cc1 measured_result=inactive
compound_structure_string=CN1CCN(c2cc(-c3ccc(N(C)C)cc3)ncn2)CC1 measured_result="2.51 µM (active)"
compound_structure_string=CC(=O)N1CCC2(CC1)CN(c1ccccn1)C2 measured_result=inactive
compound_structure_string=Cn1c(=O)c(-c2ccccc2)nc2cncnc21 measured_result="0.631 µM (active)"

# ---- query compound ----
Need Potency of COc1ncc2nc(-c3cccc(C#N)c3)c(=O)n(CCC#N)c2n1 , thanks. 20 µM (active)
